List of pEC50 values.
- assay explanation: Inhibition of CaCl2-induced contraction in potassium depolarized-guinea pig ileal smooth muscle
- Format: functional, Cavia porcellus
Note on units: pEC50 is unitless, being -log10 of a concentration expressed in mol/L.

Cc1c(O)c2c(c(C)c1CCO)C(=O)C(C)(C)C2 [ONITIN]: 4.00

GET /values?readout=pEC50&item= Cc1c(O)c2c(c(C)c1CCO)C(=O)C(C)(O)C2 (configuration not stated) [ONITISIN]
2.70

Data origin, for the record: ChEMBL document CHEMBL1144674
